Data credit: PubChem BioAssay (NCI)

Below: a set of entries, each annotated with reported TGI.
System: SR leukemia
Assay: NCI tumour cell line growth inhibition, 48 h

molecule: CCOC(=O)Cn1c(=O)c2nc(SC)sc2n(CC)c1=S
TGI: > 100 µM

molecule: COCC(O)Cn1ccnc1[N+](=O)[O-] (configuration not stated)
TGI: > 100 µM

molecule: Cc1cc(NCCCCCCNc2cc(C)nc3cc(N(C)C)ccc23)c2ccc(N(C)C)cc2n1
TGI: > 100 µM

molecule: CC1OC(n2c3ccccc3c3c4c(c5c6ccccc6[nH]c5c32)C(=O)N(CCN[C@@H]2CCC[C@H]2N)C4=O)CC(O)C1O (some centres not stated)
TGI: 3.94 µM

Ask: Value lookup for TGI; key = `COc1cc2c3c(n(CCCCN)c(=O)c2cc1OC)-c1cc2c(cc1C3=O)OCO2`
Result: 0.417 µM

Ask: Value lookup for TGI; key = Cc1oc2c(C)c3oc(=O)cc(C)c3cc2c1CN1C(=O)C2OCCOCCOCCOCCOCCO[C@H]2C1=O (some centres not stated)
Result: > 100 µM

Ask: Value lookup for TGI; key = `N#CCCN(CCCN(CCCN(C(=O)Nc1ccccc1)c1ccccc1)C(=O)Nc1ccccc1)C(=O)Nc1ccccc1`
Result: > 8.75 µM

* * *

Below: a set of entries, each annotated with reported TGI.
System: TK-10 renal
Test: NCI tumour cell line growth inhibition, 48 h

compound: C[C@H](NC(=O)c1ccc(CNC(=O)/C=C/c2cccc(Oc3ccccc3)c2)cc1)c1ccccc1
value: > 100 µM
--
compound: CC[C@@H]1CC[C@@H]2[C@H](CC[C@]3(C)[C@@H](OS(=O)(=O)c4ccc(C)cc4)CC[C@@H]23)[C@H]1COS(=O)(=O)c1ccc(C)cc1
value: > 100 µM
--
compound: CCCCCCCCCCCCCCCCOCC(CC(F)(F)P(=O)(OCC)OCC)OC(C)=O (stereo not given)
value: 27.3 µM
--
compound: O=C(/C=C/c1ccc(O)c(-c2cc(C(=O)/C=C/c3ccc(O)cc3)c(O)cc2O)c1)c1ccc(O)cc1O
value: > 50 µM

Here's the next entry for you.
Ask: Value lookup for TGI; key = CC1CC[C@@]2(OC1)OC1C[C@H]3[C@@H]4CC=C5CC(OC6OC(CO)C(OC7OC(CO)C(O)C(OC8OCC(O)C(O)C8O)C7OC7OC(CO)C(O)C(O)C7O)C(O)C6O)CCC5(C)[C@H]4CCC3(C)C1[C@@H]2C (stereo not given in full)
Result: 20.2 µM

* * *

Test system: A498 renal
Experiment: NCI tumour cell line growth inhibition, 48 h
recorded_metric: TGI

structure_as_smiles: CNC(=O)OCc1c(CO)nc(SC)n1C
TGI: > 100 µM

Ask: Value lookup for TGI; key = `N#C/C(c1nc2ccccc2[nH]1)=c1\s/c(=C/c2ccc(Cl)cc2)c(=O)n1-c1ccccc1`
Result: > 100 µM

Ask: Value lookup for TGI; key = `CC(C)=CCC/C(=C/CC/C(=C\CCc1ccoc1)C(=O)O)C(=O)O`
Result: > 100 µM

* * *

Below: a set of entries, each annotated with reported TGI.
Test system: HS 578T breast
Assay: NCI tumour cell line growth inhibition, 48 h

Here's what some known entries look like.
compound: CCSc1n/c(=C\c2ccco2)c2nncn12
study_target: HS 578T breast
TGI: > 100 µM
--
compound: O=[N+]([O-])c1ccc2c(c1)Cc1cc(N=Cc3ccc4c(c3)OCO4)ccc1-2
study_target: HS 578T breast
TGI: > 100 µM

Ask: Value lookup for TGI; key = Brc1cc(CCOC2CCCCO2)c(-c2sccc2CCOC2CCCCO2)s1 (stereo unspecified)
Result: > 95.7 µM

Ask: Value lookup for TGI; key = Cc1ccc(C(CC(=O)c2ccccc2)C2C(=O)NC(=O)NC2=O)cc1 (stereo unspecified)
Result: > 100 µM

Ask: Value lookup for TGI; key = `COc1cccc2c1Cc1cc(-c3ccccc3)[n+](C)n1-2`
Result: > 100 µM

Ask: Value lookup for TGI; key = Cc1c(N2C(=O)CS(=O)(=O)C2c2cccc(Oc3ccccc3)c2)c(=O)n(-c2ccccc2)n1C (stereo unspecified)
Result: > 100 µM

* * *

Below: a set of entries, each annotated with reported TGI.
Tested on: RXF 393 renal
Assay: NCI tumour cell line growth inhibition, 48 h

Here's what some known entries look like.
compound: CC1CN(c2ccc(Cl)cc2)CC(C)OC(=O)O1 (stereo not given)
value: > 100 µM
//
compound: CCN(CC)CCOc1ccc(CCc2cc(OC)c(OC)c(OC)c2)cc1
value: 93.2 µM
//
compound: CCOP(=O)(OCC)C(Nc1ccc(Br)cc1)c1cccc([N+](=O)[O-])c1 (stereo not given)
value: 31.5 µM
//
compound: CCCCc1ccc(Nc2nc(SC)c3[nH]cnc3n2)cc1
value: > 100 µM

Here's the next entry for you.
Ask: Value lookup for TGI; key = Brc1cc(CCOC2CCCCO2)c(-c2sccc2CCOC2CCCCO2)s1 (stereo not given)
Result: 3 µM

* * *

System: UO-31 renal
Assay: NCI tumour cell line growth inhibition, 48 h
recorded_metric: TGI

compound: CCOC1=C2C(=O)OC(=O)C2C2CCCCC2=C1 (configuration not stated)
TGI: > 100 µM

Ask: Value lookup for TGI; key = `COc1ccc(-c2nc(-c3ccccc3)c(-c3ccccc3)[nH]2)cc1OC1CCCC1`
Result: > 100 µM

Ask: Value lookup for TGI; key = `O=S(=O)(Nc1ccc(Br)c(Cl)c1)c1ccc(-c2cnc(C3CC3)o2)cc1`
Result: 13.6 µM

Ask: Value lookup for TGI; key = CC1CN(c2ccc(Cl)cc2)CC(C)OC(=O)O1 (configuration not stated)
Result: > 100 µM

Ask: Value lookup for TGI; key = `COc1cc(Nc2c(C#N)cnc3cc(OCCCN4CCN(C)CC4)c(OC)cc23)c(Cl)cc1Cl`
Result: 7.75 µM

Ask: Value lookup for TGI; key = `CC(=O)O[C@H]1C(=O)[C@@]2(C)[C@H]([C@H](OC(=O)c3ccccc3)[C@]3(O)C[C@H](OC(=O)[C@H](O)[C@@H](NC(=O)c4cccc(N=[N+]=[N-])c4)c4ccccc4)C(C)=C1C3(C)C)[C@]1(OC(C)=O)CO[C@@H]1C[C@@H]2O`
Result: > 25 µM

* * *

System: NCI-H460 lung
Experiment: NCI tumour cell line growth inhibition, 48 h
recorded_metric: TGI

compound: O=C(O/C(=C(/N=Nc1ccccc1)c1ccccc1)c1ccccc1)c1ccccc1
study_target: NCI-H460 lung
recorded_metric: TGI
value: > 100 µM
//
compound: CNC(=O)OCc1c(CO)nc(SC)n1C
study_target: NCI-H460 lung
recorded_metric: TGI
value: > 100 µM
//
compound: Cc1ccc(SSc2ccc(C)cc2C(=O)O)c(C(=O)O)c1
study_target: NCI-H460 lung
recorded_metric: TGI
value: > 100 µM
//
compound: O=C(CC(=O)C1=CNc2ccccc2S1)C(=O)Nc1ccc(Cl)cc1
study_target: NCI-H460 lung
recorded_metric: TGI
value: > 50 µM
//
compound: O=C1Nc2nc3ccccc3n2N=C2CCCC12 (stereo unspecified)
study_target: NCI-H460 lung
recorded_metric: TGI
value: > 100 µM
//
compound: CN(C)CC(CC1=C(CC(CN(C)C)N(C)C)CCC1)N(C)C (stereo unspecified)
study_target: NCI-H460 lung
recorded_metric: TGI
value: > 100 µM

Ask: Value lookup for TGI; key = CC1=NN(c2cccc(Cl)c2)C2(SCC(=O)N2c2nc3ccccc3s2)/C1=C\c1cccs1 (stereo unspecified)
Result: 69.1 µM

* * *

Tested on: HCT-15 colon
Experiment: NCI tumour cell line growth inhibition, 48 h
recorded_metric: TGI

structure_as_smiles: CCn1cnc(C[C@H](NC(=O)[C@@H](NC(=O)Nc2cc(C(F)(F)F)cc(C(F)(F)F)c2)C(C)C)C(=O)OC)c1
study_target: HCT-15 colon
TGI: > 10 µM

Ask: Value lookup for TGI; key = `COc1ccc(N=Cc2ccc(N(CCC#N)S(=O)(=O)c3ccccc3)cc2)cc1`
Result: > 100 µM

Ask: Value lookup for TGI; key = `C[C@@H](c1ccccc1)N1CN(C(=O)OCc2ccccc2)C(C)(C)CC1=O`
Result: > 100 µM

Ask: Value lookup for TGI; key = `O=c1c2ccccc2c(=O)n2n1CC=CC2`
Result: > 100 µM

Ask: Value lookup for TGI; key = `Clc1cc(Cl)cc(C=NC23CC4CC(CC(C4)C2)C3)c1`
Result: > 10 µM

Ask: Value lookup for TGI; key = `CCOC(=O)Cn1c(=O)c2nc(SC)sc2n(CC)c1=S`
Result: > 100 µM

* * *

System: BT-549 breast
Test: NCI tumour cell line growth inhibition, 48 h
recorded_metric: TGI

compound: C=CCC1(OC(C)=O)C2OC(=O)C1(O)OCC2O (centres undefined)
value: > 100 µM
--
compound: O=C(O)C1OC1(c1cccc(Cl)c1)c1ccccc1Cl (centres undefined)
value: 39 µM
--
compound: C/C=C\C(CC(=O)NCCC1CN(S(=O)(=O)c2ccc(C)cc2)c2ccccc21)CC(=O)OC (centres undefined)
value: > 100 µM
--
compound: c1csc(-c2cn3nc(-c4c[nH]c5ccccc45)sc3n2)c1
value: 31.7 µM
--
compound: Cc1c(N2C(=O)CS(=O)(=O)C2c2cccc(Oc3ccccc3)c2)c(=O)n(-c2ccccc2)n1C (centres undefined)
value: > 100 µM

Here's the next entry for you.
Ask: I'm curious: which TGI was measured for Cc1ccc(C(CC(=O)c2ccccc2)C2C(=O)NC(=O)NC2=O)cc1 (centres undefined) tested on BT-549 breast?
Result: > 100 µM
